This collection of values is drawn from PubChem BioAssay.

# Tested on: transactivating tegument protein VP16 (Human herpesvirus 1)
# Assay Overview: VP16 transactivation reporter inhibitors, counter-screen for SRC2 inhibitor project, cell-based, luminescence, single concentration (AID 652007)
# Conditions Used: cell-based VP16 transactivation luciferase reporter, at 8.9 µM, stronger effect = higher value
Calls of active or inactive are those of the source. Cut-off read from the data, not from the text of the source: active = inhibition above about 36%; inactive = the rest.
Parameter: inhibition. Scope: all listed entries.

Compound | inhibition
O=C(N[C@@H](Cc1ccccc1)C(=O)CCl)OCc1ccccc1 | 64.2% (active)
CCOC(=O)C(=Cc1ccc(-n2cncn2)cc1)C(=O)OCC | 15.5% (inactive)
CCOC(=O)C1=C(COC(=O)CCOc2cc(C)ccc2C)NC(=O)NC1C (stereo unspecified) | -6.92% (inactive)
COc1ccc(OC)c(NC(=O)C(C)OC(=O)c2cc3ccccc3[nH]2)c1 (stereo unspecified) | -2.68% (inactive)
Cc1ccc(NC(=O)O/N=C/c2c(C)nn(C(C)(C)C)c2C)cc1Cl | 94.6% (active)

Then this compound:
Query: Which value of inhibition has been reported for O=C(CCCN1C(=O)/C(=C/c2ccccc2Cl)SC1=S)NNC(=O)c1ccccc1 in the records?
Reply: 61.2% (active)
